reportedEndpoint: MDR1-MDCK efflux ratio

Worked cases, MDR1-MDCK efflux ratio given:
Task item: Param item = "CC1(C)COCCN1Cc1cnn(-c2ccccc2)n1" ; retrieve measured MDR1-MDCK efflux ratio.
Reply: 0.545

Task item: Param item = "CN1CCC(C(=O)N2CCC(c3cc(C(F)(F)F)c4c(n3)CCNC4=O)CC2)CC1" ; retrieve measured MDR1-MDCK efflux ratio.
Reply: 5.17

Task item: Param item = "CN(CC(N)=O)Cc1cc2c(cc1Br)OCO2" ; retrieve measured MDR1-MDCK efflux ratio.
Reply: 0.761

Task item: Param item = "COCCNC(=O)c1nnc2n(c1=O)CCN2c1ccccc1" ; retrieve measured MDR1-MDCK efflux ratio.
Reply: 9.52

P: NC(=O)COc1ccccc1C(=O)Nc1cccc(-c2ccc3ccccc3c2)n1
Q: CN(c1ncc(F)cn1)[C@H]1CCCNC1
Task item: Problem: Given the entries P and Q , determine which has the lower reported MDR1-MDCK efflux ratio. Identify your selection by its label.
Reply: P

1: COc1ccccc1-n1cc(CNC(=O)N(C)Cc2c(C)nn(C)c2C)cn1
2: COc1ccc2c(-c3ccccc3)cc3nnnn3c2c1
3: O=C(c1ccc2oc(CCCc3ccccc3)nc2c1)N1CCC(Oc2cccnc2)CC1
4: C=CC(=O)N1CCC(CNc2ncnc(N)c2-c2ccc(Oc3ccccc3)cc2)CC1
Task item: Ascending by MDR1-MDCK efflux ratio, please: list the molecules accordingly. Write the labels out in the order the request specifies.
Reply: 2, 3, 4, 1

====

reportedEndpoint: intrinsic clearance, human liver microsomes (L/h/kg)

Worked cases, intrinsic clearance, human liver microsomes given:
Task item: Param item = "Cc1c(-c2ccccc2)oc2c(C(=O)NCCCN3CCCCC3)cccc2c1=O" ; retrieve measured intrinsic clearance, human liver microsomes.
Reply: 0.796

Task item: Param item = "O=C(NCCc1ccc2c(c1)OCO2)N1CCc2sccc2C1" ; retrieve measured intrinsic clearance, human liver microsomes.
Reply: 9.83

Task item: Param item = "Fc1ccccc1CN1CCN(c2ncccn2)CC1" ; retrieve measured intrinsic clearance, human liver microsomes.
Reply: 5.08

I: NC(CO)(CO)CCc1ccc(Sc2cccc(OCc3ccccc3)c2)cc1Cl
II: Cc1noc(C(C)C)c1C(=O)Nc1ccccn1
Task item: Problem: Given the entries I and II , determine which has the lower reported intrinsic clearance, human liver microsomes. Identify your selection by its label.
Reply: I

a: CC(C)(C)OC(=O)N1CCCN1C(=O)c1cc2cc(Cl)ccc2[nH]1
b: NC(=O)c1ccc(Oc2ccc(C(=O)N3CCCCCC3)cc2)cc1
Task item: Problem: Given the entries a and b , determine which has the lower reported intrinsic clearance, human liver microsomes. Identify your selection by its label.
Reply: b
(b: 0.681 L/h/kg, a: 2.83 L/h/kg)

1: COc1cc(Nc2ncc(F)c(Nc3ccc4c(n3)NC(=O)C(C)(C)O4)n2)cc(OC)c1OC
2: c1ccc(-c2ccc(CN3CCCCCCC3)cc2)cc1
3: Nc1nc(-c2ccccc2)nc2nc(C3CCCN(CC(=O)N4CCCC4)C3)ccc12 (stereo unspecified)
Task item: Ascending by intrinsic clearance, human liver microsomes, please: list the compounds accordingly. Write the labels out in the order the request specifies.
Reply: 3, 2, 1

====

reportedEndpoint: intrinsic clearance, human liver microsomes (mL/min/kg)

Worked cases, intrinsic clearance, human liver microsomes given:
Task item: Param item = "O=C1CCCc2c1[nH]c1cc(-n3ccnc3-c3ccncc3)ccc21" ; retrieve measured intrinsic clearance, human liver microsomes.
Reply: 26.7

Task item: Param item = "Cc1ccc(C)c(S(=O)(=O)N2CCCN(C3CCC3)CC2)c1" ; retrieve measured intrinsic clearance, human liver microsomes.
Reply: 214

Task item: Param item = "CCN(C(=O)N1CCC(OC2CCOCC2)CC1)C(C)C" ; retrieve measured intrinsic clearance, human liver microsomes.
Reply: 21.6

Task item: Param item = "Cc1ccnc(-n2nccc2NC(=O)N2CCCN(C)CC2)c1" ; retrieve measured intrinsic clearance, human liver microsomes.
Reply: 13.2

Task item: Param item = "CN1C(=O)N[C@H](Cc2c[nH]c3c(Cl)cccc23)C1=O" ; retrieve measured intrinsic clearance, human liver microsomes.
Reply: 8.58

I: COc1ccc(CCNCc2ccc(-c3ccccc3)o2)cc1OC
II: CC(C)(C)C(=O)N1CCC(CN(CC(N)=O)C2CCCC2)CC1
III: Nc1ncccc1OCc1cccc(Cl)c1
IV: Cc1cc(C(=O)N(C)CC2CCN(CCO)CC2)cc(C)n1
V: COCC1(CNC(=O)c2ccc(-n3cccn3)cc2)CCC1
Task item: Ascending by intrinsic clearance, human liver microsomes, please: list the compounds accordingly. Write the labels out in the order the request specifies.
Reply: IV, V, II, I, III
(IV: 7.92 mL/min/kg, V: 18.2 mL/min/kg, II: 29.8 mL/min/kg, I: 63.8 mL/min/kg, III: 157 mL/min/kg)
